# target system: human TLR8 (Homo sapiens (Human), UniProt Q9NR97)
# Sequence (Q9NR97 27-1041): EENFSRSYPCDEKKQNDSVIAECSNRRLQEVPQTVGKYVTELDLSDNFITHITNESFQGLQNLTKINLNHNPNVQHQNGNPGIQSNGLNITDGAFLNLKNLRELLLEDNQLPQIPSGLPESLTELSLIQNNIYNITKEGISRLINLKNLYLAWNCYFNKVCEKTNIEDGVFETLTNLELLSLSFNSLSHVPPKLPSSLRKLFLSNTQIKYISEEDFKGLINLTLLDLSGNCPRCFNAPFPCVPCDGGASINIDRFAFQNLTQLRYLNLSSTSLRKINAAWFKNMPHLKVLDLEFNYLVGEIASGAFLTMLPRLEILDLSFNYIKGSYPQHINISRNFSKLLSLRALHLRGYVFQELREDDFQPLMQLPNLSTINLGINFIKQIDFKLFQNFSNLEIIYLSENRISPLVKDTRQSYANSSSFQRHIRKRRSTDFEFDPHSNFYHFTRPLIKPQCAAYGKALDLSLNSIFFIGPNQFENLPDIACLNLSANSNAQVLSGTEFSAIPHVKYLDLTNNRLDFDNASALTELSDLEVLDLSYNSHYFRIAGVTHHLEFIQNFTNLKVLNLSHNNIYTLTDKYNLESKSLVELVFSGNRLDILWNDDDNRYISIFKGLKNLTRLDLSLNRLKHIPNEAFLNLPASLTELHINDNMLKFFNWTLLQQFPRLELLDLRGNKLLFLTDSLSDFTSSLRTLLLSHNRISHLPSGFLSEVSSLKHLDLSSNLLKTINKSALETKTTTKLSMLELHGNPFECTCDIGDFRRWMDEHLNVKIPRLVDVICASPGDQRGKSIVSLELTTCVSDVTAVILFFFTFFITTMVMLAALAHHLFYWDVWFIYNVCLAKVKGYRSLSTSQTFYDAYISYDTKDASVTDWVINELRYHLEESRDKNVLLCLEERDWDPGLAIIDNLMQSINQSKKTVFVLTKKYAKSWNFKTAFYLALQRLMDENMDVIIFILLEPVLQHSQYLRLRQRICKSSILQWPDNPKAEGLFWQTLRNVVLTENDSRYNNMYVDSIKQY
# protocol notes: TLR8 inhibition reporter assay (HEK-Blue SEAP);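 further: SEAP driven by IFN-β minimal promoter carrying NF-κB and AP-1 sites, compounds dosed 0.05 nM to 50 µM for 22 h, inhibition scaled between agonist-plus-DMSO and reference-inhibitor wells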
# experimental parameters: read-out: TLR8 IC50; HEK-Blue cells overexpressing human TLR8, R848 15.9 μM stimulation, SEAP reporter
pIC50: −log10 of the molar value.
reported endpoint: pIC50

Here's what some known entries look like.
compound: COc1cc(-c2[nH]c3ccc(N4CCN(C(C)CCO)CC4)nc3c2C(C)C)cn2ncnc12 (stereo not shown)
target system: human TLR8 (Homo sapiens (Human), UniProt Q9NR97)
pIC50: 9.07

compound: CC(C)c1c(-c2cn(C)c3ncccc23)[nH]c2ccc(C3CCC(NCC(=O)N(C)C)CC3)nc12 (stereo not shown) [Example 182]
target system: human TLR8 (Homo sapiens (Human), UniProt Q9NR97)
pIC50: 8.96

compound: Cc1c(-c2[nH]c3ccc(C4CCC(N5CCC[C@@H]5CO)CC4)nc3c2C(C)C)cn2ncnc2c1C (stereo partly shown) [Example 372]
target system: human TLR8 (Homo sapiens (Human), UniProt Q9NR97)
pIC50: 8.12

[A] CCn1cc(-c2[nH]c3ccc(C4CCC(N5CC6(COC6)C5)CC4)nc3c2C(C)C)c2cccnc21 (stereo not shown) [Example 294]
[B] COc1cc(-c2[nH]c3ccc(C4CCC(N(C)C)CC4)nc3c2C(C)C)cn2ncnc12 (stereo not shown) [Example 177]
[C] Cc1c(-c2[nH]c3ccc(C4CCC(N(C)CCC#N)CC4)nc3c2C(C)C)cn2ncnc2c1C (stereo not shown) [Example 366]
Order the records so the highest pIC50 appears first and the lowest last. Use the labels to give the ranking in the order requested.
B, C, A
(B: 8.60, C: 7.82, A: 6.76)

[a] CNC1CCC(c2ccc3[nH]c(-c4cn5ncnc5c(C)c4C)c(C(C)C)c3n2)CC1 (single isomer, unassigned) [Example 367]
[b] Cc1c(-c2[nH]c3ccc(N4CCC(N(C)CC5CC5)CC4)nc3c2C(C)C)cn2ncnc2c1C
[c] Cc1c(-c2[nH]c3ccc(N4CCN(C5CCOCC5)CC4)nc3c2C(C)C)cn2ncnc2c1C
[d] Cc1cnc(CNC2CCC(c3ccc4[nH]c(-c5cc(CO)c6ncnn6c5)c(C(C)C)c4n3)CC2)cn1 (stereo not shown) [Example 217]
[e] CC(C)c1c(-c2cn(C)c3ncccc23)[nH]c2ccc(C3CCC(NCCS(C)(=O)=O)CC3)nc12 (stereo not shown) [Example 247]
Order the records by pIC50, with each subsequent value no larger than the one before. Labels, requested order.
c, b, e, a, d

[a] COc1cc(-c2[nH]c3cc(C)c(C4CCC(N(C)CC(C)(C)C)CC4)nc3c2C(C)C)cn2ncnc12 (stereo not shown) [Example 336]
[b] CC(C)c1c(-c2cn(C)c3ncccc23)[nH]c2ccc(C3CCC(N4CC5(C4)CS(=O)(=O)C5)CC3)nc12 (stereo not shown) [Example 256]
Identify the entry with the larger pIC50. Options: a and b Return value: the label identifying the chosen record.
b
(b: 8.43, a: 7.32)

---

# target system: human TLR9 (Homo sapiens (Human), UniProt Q9NR96)
# Sequence (Q9NR96 26-1032): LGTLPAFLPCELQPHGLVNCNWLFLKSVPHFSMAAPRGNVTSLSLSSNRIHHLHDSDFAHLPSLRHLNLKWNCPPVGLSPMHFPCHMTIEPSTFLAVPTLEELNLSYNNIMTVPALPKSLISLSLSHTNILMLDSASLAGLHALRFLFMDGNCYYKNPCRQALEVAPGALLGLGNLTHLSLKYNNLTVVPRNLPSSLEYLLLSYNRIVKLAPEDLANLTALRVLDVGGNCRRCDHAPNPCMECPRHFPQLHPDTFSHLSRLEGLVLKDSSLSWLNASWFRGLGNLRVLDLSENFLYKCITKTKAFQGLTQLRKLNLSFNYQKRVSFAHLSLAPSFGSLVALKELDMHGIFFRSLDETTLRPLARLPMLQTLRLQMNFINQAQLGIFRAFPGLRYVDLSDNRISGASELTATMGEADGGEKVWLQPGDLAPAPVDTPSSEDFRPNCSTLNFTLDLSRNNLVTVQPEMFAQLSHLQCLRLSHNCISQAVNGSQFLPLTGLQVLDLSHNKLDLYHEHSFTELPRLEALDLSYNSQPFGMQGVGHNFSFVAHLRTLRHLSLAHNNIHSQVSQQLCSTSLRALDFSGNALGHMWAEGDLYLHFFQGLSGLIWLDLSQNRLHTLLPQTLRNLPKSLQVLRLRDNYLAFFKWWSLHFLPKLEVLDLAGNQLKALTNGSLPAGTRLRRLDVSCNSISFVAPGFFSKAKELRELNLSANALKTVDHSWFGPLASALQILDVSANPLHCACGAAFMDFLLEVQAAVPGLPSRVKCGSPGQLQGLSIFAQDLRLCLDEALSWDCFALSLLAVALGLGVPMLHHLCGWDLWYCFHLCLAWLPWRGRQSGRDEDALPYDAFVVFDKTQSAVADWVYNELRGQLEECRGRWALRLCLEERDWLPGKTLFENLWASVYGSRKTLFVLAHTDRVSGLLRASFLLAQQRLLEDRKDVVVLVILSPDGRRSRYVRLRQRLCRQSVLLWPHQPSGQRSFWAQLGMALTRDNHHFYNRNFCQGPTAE
# protocol notes: TLR9 inhibition reporter assay (HEK-Blue SEAP)
# experimental parameters: read-out: TLR9 IC50; HEK-Blue cells overexpressing human TLR9, ODN2006 5 nM stimulation, SEAP reporter
pIC50: −log10 of the molar value.
reported endpoint: pIC50

compound: Cc1c(-c2[nH]c3ccc(N4CCC(NC5CCOCC5)CC4)nc3c2C(C)C)cn2ncnc2c1C
pIC50: 5.57
--
compound: CC(C)c1c(-c2cn(C)c3ncncc23)[nH]c2ccc(N3CCN(C(=O)CN(C)C)CC3)nc12
pIC50: 5.06

[a] Cc1c(-c2[nH]c3ccc(N4CCC(N(C)Cc5ncccn5)CC4)nc3c2C(C)C)cn2ncnc2c1C [Example 78]
[b] CC(C)c1c(-c2cn(CCS(C)(=O)=O)c3ncccc23)[nH]c2ccc(C3CCC(O)CC3)nc12 (stereo not shown)
[c] CNC(=O)CNC1CCC(c2ccc3[nH]c(-c4cc(OC)c5ncnn5c4)c(C(C)C)c3n2)C1 (stereo not shown)
Hello, I need these entries ordered by pIC50, highest reading first. Thanks! Respond with the label ranking, as requested.
c, a, b
(c: 5.98, a: 5.50, b: 4.96)

[A] COCCN(C)C1CCC(c2ccc3[nH]c(-c4cn5ncnc5c(C)c4C)c(C(C)C)c3n2)CC1 (stereo not shown) [Example 391]
[B] COc1cc(-c2[nH]c3ccc(C4CCC(NC5COC5)CC4)nc3c2C(C)C)cn2ncnc12 (stereo not shown) [Example 186]
Of the pair A and B , name the member with the lesser recorded pIC50. Lab log: write the label of the selected item as the result.
A
(A: 5.61, B: 6.00)

---

# target system: human TLR7 (Homo sapiens (Human), UniProt Q9NYK1)
# Sequence (Q9NYK1 27-1049): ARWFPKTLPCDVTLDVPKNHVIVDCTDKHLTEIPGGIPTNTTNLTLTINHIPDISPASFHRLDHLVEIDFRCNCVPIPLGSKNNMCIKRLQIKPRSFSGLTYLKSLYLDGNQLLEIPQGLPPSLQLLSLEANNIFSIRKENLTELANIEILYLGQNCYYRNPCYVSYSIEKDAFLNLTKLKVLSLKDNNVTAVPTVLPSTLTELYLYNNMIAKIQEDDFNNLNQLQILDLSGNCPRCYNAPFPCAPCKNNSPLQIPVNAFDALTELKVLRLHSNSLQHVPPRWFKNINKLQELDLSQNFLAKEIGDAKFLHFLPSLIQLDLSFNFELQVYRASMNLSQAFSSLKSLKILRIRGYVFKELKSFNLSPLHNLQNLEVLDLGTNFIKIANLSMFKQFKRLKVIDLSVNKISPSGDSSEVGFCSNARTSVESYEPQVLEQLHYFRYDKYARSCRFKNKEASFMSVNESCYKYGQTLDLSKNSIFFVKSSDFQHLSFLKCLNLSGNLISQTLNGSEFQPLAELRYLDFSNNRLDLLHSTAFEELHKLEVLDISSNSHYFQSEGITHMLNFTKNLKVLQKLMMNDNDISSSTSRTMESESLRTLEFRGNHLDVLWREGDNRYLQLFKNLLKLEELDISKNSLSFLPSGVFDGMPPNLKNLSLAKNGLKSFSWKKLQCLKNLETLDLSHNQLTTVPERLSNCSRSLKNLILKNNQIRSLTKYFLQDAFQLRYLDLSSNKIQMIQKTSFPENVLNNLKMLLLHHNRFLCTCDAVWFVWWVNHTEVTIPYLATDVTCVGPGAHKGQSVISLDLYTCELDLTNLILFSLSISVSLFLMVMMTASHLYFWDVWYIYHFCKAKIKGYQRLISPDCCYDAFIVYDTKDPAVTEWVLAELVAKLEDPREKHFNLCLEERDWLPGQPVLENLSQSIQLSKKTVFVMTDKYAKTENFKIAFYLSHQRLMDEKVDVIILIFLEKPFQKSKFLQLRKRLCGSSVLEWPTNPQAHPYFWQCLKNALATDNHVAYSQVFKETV
# protocol notes: TLR7 inhibition reporter assay (HEK-Blue SEAP)
# Type: cell-based
# experimental parameters: HEK-Blue human TLR7 cells, gardiquimod 7.5 μM
pIC50: −log10 of the molar value.
reported endpoint: pIC50

compound: Cc1c(-c2[nH]c3ccc(N4CCC(N(C)CC5(C)COC5)CC4)nc3c2C(C)C)cn2ncnc2c1C [Example 996]
pIC50: 8.89

[P] Cc1c(-c2[nH]c3ccc(N4CCN(CCC(N)=O)C[C@@H]4C)nc3c2C(C)C)cn2ncnc2c1C [Example 804]
[Q] Cc1c(-c2[nH]c3ccc(N4CC5(CN(CCC#N)C5)C4)nc3c2C(C)C)cn2ncnc2c1C [Example 1014]
Hi! Which is lower in terms of pIC50, the first one P or the second one Q ? State the label of the item chosen.
Q

---

# target system: human TLR7 (Homo sapiens (Human), UniProt Q9NYK1)
# protocol notes: TLR7 inhibition reporter assay (HEK-Blue SEAP)
# Type: cell-based
# experimental parameters: HEK-Blue human TLR7 cells, gardiquimod 7.5 μM
pIC50: −log10 of the molar value.
reported endpoint: pIC50

// worked examples, pIC50 included
smiles str: Cc1c(-c2[nH]c3ccc(N4CCN(C(=O)CN5CCC5)C[C@@H]4C)nc3c2C(C)C)cn2ncnc2c1C
target system: human TLR7 (Homo sapiens (Human), UniProt Q9NYK1)
pIC50: 8.80

smiles str: CCN(C)CCC(=O)N1C[C@H](C)N(c2ccc3[nH]c(-c4cn5ncnc5c(C)c4C)c(C(C)C)c3n2)C[C@H]1C
target system: human TLR7 (Homo sapiens (Human), UniProt Q9NYK1)
pIC50: 9.41

smiles str: Cc1c(-c2[nH]c3ccc(N4C[C@H](C)N(C(=O)CN5CC6(COC6)C5)C[C@H]4C)nc3c2C(C)C)cn2ncnc2c1C
target system: human TLR7 (Homo sapiens (Human), UniProt Q9NYK1)
pIC50: 9.32

smiles str: Cc1c(-c2[nH]c3ccc(N4CCN(C(=O)CN(C)CC(C)(C)O)CC4)nc3c2C(C)C)cn2ncnc2c1C
target system: human TLR7 (Homo sapiens (Human), UniProt Q9NYK1)
pIC50: 8.59

smiles str: COCCN1CC2(CC(c3ccc4[nH]c(-c5cn6ncnc6c(C)c5C)c(C(C)C)c4n3)C2)C1
target system: human TLR7 (Homo sapiens (Human), UniProt Q9NYK1)
pIC50: 7.74

[P] CCCCN(CC)CC(=O)N1CCN(c2ccc3[nH]c(-c4cn5ncnc5c(C)c4C)c(C(C)C)c3n2)CC1
[Q] Cc1c(-c2[nH]c3ccc(N4C[C@@H](C)N(C(=O)CN5CC6(COC6)C5)C[C@@H]4C)nc3c2C(C)C)cn2ncnc2c1C
[R] Cc1c(-c2[nH]c3ccc(N4C[C@H](C)N(CCCS(C)(=O)=O)C[C@H]4C)nc3c2C(C)C)cn2ncnc2c1C
Sort low-to-high on pIC50, please. To answer, arrange all of the labels according to the requested order.
P, R, Q

[A] Cc1c(-c2[nH]c3ccc(N4CCN(C(=O)CC(C)(C)N5CC6(COC6)C5)CC4)nc3c2C(C)C)cn2ncnc2c1C
[B] CCN(C)CC(=O)N1[C@H](C)CN(c2ccc3[nH]c(-c4cn5ncnc5c(C)c4C)c(C(C)C)c3n2)C[C@H]1C
// returns A or B , whichever has the lower pIC50 Which one? Tell me its label.
A

---

# target system: UniProt:Q9NYK1
# protocol notes: TLR7 inhibition reporter assay (HEK-Blue SEAP)
# Format: cell-based
# experimental parameters: HEK-Blue human TLR7 cells, gardiquimod 7.5 μM
pIC50: −log10 of the molar value.
reported endpoint: pIC50

compound: COc1cc(-c2[nH]c3ccc(C4CCC(N5CCC(F)C5)CC4)nc3c2C(C)C)cn2ncnc12 (stereo not drawn) [Example 1067]
target system: UniProt:Q9NYK1
val: 9.00
//
compound: Cc1c(-c2[nH]c3ccc(C4CCC(N5CC6(CCOC6)C5)CC4)nc3c2C(C)C)cn2ncnc2c1C (stereo not drawn) [Example 1065]
target system: UniProt:Q9NYK1
val: 8.96
//
compound: Cc1c(-c2[nH]c3ccc(N4C[C@@H](C)N(C(=O)CN(C)C)[C@H](C)C4)nc3c2C(C)C)cn2ncnc2c1C
target system: UniProt:Q9NYK1
val: 8.80
//
compound: Cc1c(-c2[nH]c3ccc(N4CCN(C(=O)CN(C)C(C)(C)C)[C@@H](C)C4)nc3c2C(C)C)cn2ncnc2c1C
target system: UniProt:Q9NYK1
val: 9.00
//
compound: Cc1c(-c2[nH]c3ccc(N4C[C@@H](C)N(C(=O)CCN5CC6(COC6)C5)C[C@@H]4C)nc3c2C(C)C)cn2ncnc2c1C
target system: UniProt:Q9NYK1
val: 9.05

[P] Cc1c(-c2[nH]c3ccc(N4C[C@@H](C)N(C(C)C)C[C@@H]4C)nc3c2C(C)C)cn2ncnc2c1C
[Q] COCCNC1CN(c2ccc3[nH]c(-c4cn5ncnc5c(C)c4C)c(C(C)C)c3n2)C1
[R] Cc1c(-c2[nH]c3ccc(N4CCN(C(=O)CN(C)C(C)(C)C)C[C@@H]4C)nc3c2C(C)C)cn2ncnc2c1C
[S] Cc1c(-c2[nH]c3ccc(N4CC5(CN(C(=O)CCN(C)C)C5)C4)nc3c2C(C)C)cn2ncnc2c1C
[T] Cc1c(-c2[nH]c3ccc(N4[C@H](C)CNC[C@H]4C)nc3c2C(C)C)cn2ncnc2c1C
Arrange items by their pIC50 values in increasing order. When ranking, write the labels in the order the request describes.
Q, S, P, R, T
(Q: 7.74, S: 8.44, P: 8.70, R: 9.29, T: 9.51)

[A] Cc1c(-c2[nH]c3ccc(C4CCC(N5CCC(F)C5)CC4)nc3c2C(C)C)cn2ncnc2c1C (stereo not drawn) [Example 1058]
[B] CCN(C1CCC(c2ccc3[nH]c(-c4cn5ncnc5c(C)c4C)c(C(C)C)c3n2)CC1)C1COC1 (stereo not drawn) [Example 1039]
# min-compare on pIC50 between A and B # answer = label of selected item
B

[I] Cc1c(-c2[nH]c3ccc(N4CCN(C5CCS(=O)(=O)CC5)C[C@@H]4C)nc3c2C(C)C)cn2ncnc2c1C
[II] CNC1CCN(c2ccc3[nH]c(-c4cn5ncnc5c(C)c4C)c(C(C)C)c3n2)CC1
Between the entries labelled I and II , which has a larger pIC50 value on record? # reply format: chosen label
II
